// data source = patent US20250011438A1

- measured.target: T1, recombinant human Tie2 Ig3-FNIII(1-3) domains (human, UniProt Q02763 349-738)
- T1 construct: also called hTie2-Ig3-FNIII(1-3)
- T1 sequence (Q02763 349-738 limits assumed): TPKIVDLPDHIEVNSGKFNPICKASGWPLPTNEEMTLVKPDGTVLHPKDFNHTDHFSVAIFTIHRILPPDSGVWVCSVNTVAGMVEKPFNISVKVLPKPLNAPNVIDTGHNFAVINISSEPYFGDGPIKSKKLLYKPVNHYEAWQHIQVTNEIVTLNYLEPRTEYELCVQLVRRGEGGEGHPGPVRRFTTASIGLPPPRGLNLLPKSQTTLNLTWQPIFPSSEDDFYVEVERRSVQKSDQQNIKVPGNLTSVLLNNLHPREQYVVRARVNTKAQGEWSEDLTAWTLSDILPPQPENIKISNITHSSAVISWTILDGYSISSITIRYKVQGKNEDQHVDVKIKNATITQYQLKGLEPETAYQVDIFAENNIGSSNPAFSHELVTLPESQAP
- protocol.description: BLI (Octet), antibody immobilised on AR2G sensor, recombinant hTie2 as analyte, 1:1 global fit
parameter.measured: koff

Could you tell me which koff is on file for mouse anti-Tie2 antibody 3H7 (antibody, V domains shown) VH: QVQLQQPGAELVRPGASVKLSCKASGYSFTSYWMNWVKQRPGQGLEWIGMIHPSDSETRLNQKFMDKATLTVDKSSSTAYMQLSSPTSEDSAVYYCARGLYGNSWGQGTLVTVSA VL: DIQMTQSPSSLSASLGERVSLTCRASQDIGISLNWLQQEPDGTIKRLIYATSSLDSGVPKRFSGSRSGSDYSLTISSLESEDFVDYYCLQYASSPYTFGGGTKLEIK ?
1.05e-05 s⁻¹

Record: humanized anti-Tie2 antibody 3H7H22G4 (antibody, V domains shown) VH: QVQLVQSGAEVKKPGASVKVSCKASGYTFTSYWMNWVRQRPGQGLEWIGMIHPSDSETRLNQKFMDRVTMTRDTSTSTVYMELSSLRSEDTAVYYCARGLYGNSWGQGTLVTVSS VL: DIQMTQSPSSLSASVGDRVTITCRASQDIGISLNWLQQEPGKAPKRLIYATSSLDSGVPKRFSGSGSGTEFTLTISSLQPEDFATYYCLQYASSPYTFGQGTKVEIK
0.000656 s⁻¹

Record: humanized anti-Tie2 antibody 3H7H21G4 (antibody, V domains shown) VH: QVQLVQSGAEVKKPGASVKVSCKASGYTFTSYWMNWVRQRPGQGLEWIGMIHPSDSETRLNQKFMDRVTMTRDTSTSTVYMELSSLRSEDTAVYYCARGLYGNSWGQGTLVTVSS VL: DIQMTQSPSSLSASVGDRVTITCRASQDIGISLNWYQQKPGKAPKRLIYATSSLDSGVPSRFSGSGSGTEFTLTISSLQPEDFATYYCLQYASSPYTFGQGTKVEIK
0.000517 s⁻¹

Record: humanized anti-Tie2 antibody 3H7H12G4 (antibody, V domains shown) VH: QVQLVQSGAEVKKPGASVKVSCKASGYTFTSYWMNWVRQAPGQGLEWMGMIHPSDSETRLNQKFMDRVTMTRDTSTSTVYMELSSLRSEDTAVYYCARGLYGNSWGQGTLVTVSS VL: DIQMTQSPSSLSASVGDRVTITCRASQDIGISLNWLQQEPGKAPKRLIYATSSLDSGVPKRFSGSGSGTEFTLTISSLQPEDFATYYCLQYASSPYTFGQGTKVEIK
0.000999 s⁻¹

Record: humanized anti-Tie2 antibody 3H7H11G4 (antibody, V domains shown) VH: QVQLVQSGAEVKKPGASVKVSCKASGYTFTSYWMNWVRQAPGQGLEWMGMIHPSDSETRLNQKFMDRVTMTRDTSTSTVYMELSSLRSEDTAVYYCARGLYGNSWGQGTLVTVSS VL: DIQMTQSPSSLSASVGDRVTITCRASQDIGISLNWYQQKPGKAPKRLIYATSSLDSGVPSRFSGSGSGTEFTLTISSLQPEDFATYYCLQYASSPYTFGQGTKVEIK
0.000467 s⁻¹
